# protocol text: MTS cytotoxicity testing, MRC‐5 non‐cancer cells
# Format: cell-based
# settings: human
pIC50: −log10 of the molar value.
quantity: pIC50

Examples with answers:
O=S(=O)(c1cc(-c2ccnc(F)c2)cc2cccnc12)N1CCCCC1 | < 4.30
O=S(=O)(c1cc(-c2ccc(C(F)(F)F)cc2)cc2cccnc12)N1CCCCC1 | < 4.30
O=S(=O)(c1cc(-c2ccccc2F)cc2cccnc12)N1CCCCC1 | < 4.30
O=S(=O)(c1cc(-c2ccc3nc[nH]c3c2)cc2cccnc12)N1CCCCC1 | < 4.30
O=S(=O)(c1cc(-c2ccccc2Br)cc2cccnc12)N1CCCCC1 | < 4.30

Now look at this entry.
Prompt: Provide one value: measured pIC50 of O=S(=O)(c1cc(-c2cccc(OC(F)(F)F)c2)cc2cccnc12)N1CCCCC1
Response: < 4.30

###

# protocol text: MTS cytotoxicity testing, BJ non‐cancer cells
# Format: cell-based
# settings: human
pIC50: −log10 of the molar value.
quantity: pIC50

Examples with answers:
Nc1cccc(-c2cc(S(=O)(=O)N3CCCCC3)c3ncccc3c2)c1 [9j] | < 4.30
N#Cc1cccc(-c2cc(S(=O)(=O)N3CCCCC3)c3ncccc3c2)c1 [9k] | < 4.30
COc1cc(-c2cc(S(=O)(=O)N3CCCCC3)c3ncccc3c2)cc(Cl)c1O [9h] | < 4.30
COc1cccc(-c2cc(S(=O)(=O)N3CCCCC3)c3ncccc3c2)c1 [9i] | < 4.30

Prompt: Provide one value: measured pIC50 of O=S(=O)(c1cc(-c2ccc(C(F)(F)F)cc2)cc2cccnc12)N1CCCCC1 [9m]
Response: < 4.30
